# system under test: T1, human FAP (Homo sapiens, UniProt Q12884)
# T1 sequence (Q12884 1-760): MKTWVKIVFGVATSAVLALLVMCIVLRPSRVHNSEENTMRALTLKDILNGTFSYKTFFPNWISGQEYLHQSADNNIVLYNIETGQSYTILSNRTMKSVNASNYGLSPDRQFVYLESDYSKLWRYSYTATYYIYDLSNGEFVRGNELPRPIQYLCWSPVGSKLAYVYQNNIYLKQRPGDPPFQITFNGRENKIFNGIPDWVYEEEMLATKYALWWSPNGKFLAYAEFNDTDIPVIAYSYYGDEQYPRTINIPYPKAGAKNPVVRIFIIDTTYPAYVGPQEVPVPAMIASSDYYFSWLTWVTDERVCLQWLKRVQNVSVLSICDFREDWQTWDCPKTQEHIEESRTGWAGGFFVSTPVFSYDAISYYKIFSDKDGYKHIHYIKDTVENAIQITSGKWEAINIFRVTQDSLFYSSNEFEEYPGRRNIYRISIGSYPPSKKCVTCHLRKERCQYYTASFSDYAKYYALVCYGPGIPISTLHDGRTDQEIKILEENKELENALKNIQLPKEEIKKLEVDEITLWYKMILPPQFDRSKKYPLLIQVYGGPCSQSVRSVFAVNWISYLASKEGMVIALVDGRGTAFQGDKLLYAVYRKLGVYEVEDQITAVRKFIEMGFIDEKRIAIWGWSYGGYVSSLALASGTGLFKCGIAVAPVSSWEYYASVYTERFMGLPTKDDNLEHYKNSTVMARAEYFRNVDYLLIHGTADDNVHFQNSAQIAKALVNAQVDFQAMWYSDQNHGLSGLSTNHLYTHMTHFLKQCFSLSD
# protocol description: BLI click reaction with Tz-R3B23 on TCO-VHHs bound to target, span (Example 7, Table 18)
# assay conditions: Experiment 1, click reaction with 50 nM Tz-R3B23 for 20 minutes, signal difference vs assay buffer
measure name: Span

molecule	measure name	test result
TCO-VHH1: VHH1, functionalized with transcyclooctene (TCO) (conjugate, cyclised or stapled) VHH: DVQLVESGGGLVQPGGSLRLSCVASGRLSSSNSMAWYRQVPGKRRELVAGITGGGETNYADFVGGRFTISRDNAKNGLYLQLNGLKPEDTAAYYCNFWPPLINYWGQGTQVTVSS	Span	0.0237

(A) VHH1: VHH, target FAP, SEQ ID NO 4 (protein, VHH1) VHH: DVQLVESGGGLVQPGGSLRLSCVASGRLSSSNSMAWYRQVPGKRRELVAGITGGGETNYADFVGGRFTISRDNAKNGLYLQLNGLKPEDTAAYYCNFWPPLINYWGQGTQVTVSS
(B) TCO-VHH7 (conjugate, cyclised or stapled) VHH: QVQLQESGGGLVQAGGSLRLSCTASGTFSGRNAMAWYRQAPGKRRELVAGIRSDDSTNYVDSVKGRFTISRDNAKNTVYLQMNSLRPEDTAVYYCNLWPPVIGAGFGSWGQGTQVTVSSAAAYPYDVPDYGSHHHHHH
Problem: When their Span values are compared, which is larger, A or B ? Please respond with the label that marks your chosen entry.
Solution: B
(B: 0.0145, A: 0.0089)
